- measurement-target: human dopamine D2L receptors (long isoform) (Homo sapiens)
- Construct: expressed in transfected cells; host or cells: HEK-293
- Sequence (P14416 whole entry, canonical isoform): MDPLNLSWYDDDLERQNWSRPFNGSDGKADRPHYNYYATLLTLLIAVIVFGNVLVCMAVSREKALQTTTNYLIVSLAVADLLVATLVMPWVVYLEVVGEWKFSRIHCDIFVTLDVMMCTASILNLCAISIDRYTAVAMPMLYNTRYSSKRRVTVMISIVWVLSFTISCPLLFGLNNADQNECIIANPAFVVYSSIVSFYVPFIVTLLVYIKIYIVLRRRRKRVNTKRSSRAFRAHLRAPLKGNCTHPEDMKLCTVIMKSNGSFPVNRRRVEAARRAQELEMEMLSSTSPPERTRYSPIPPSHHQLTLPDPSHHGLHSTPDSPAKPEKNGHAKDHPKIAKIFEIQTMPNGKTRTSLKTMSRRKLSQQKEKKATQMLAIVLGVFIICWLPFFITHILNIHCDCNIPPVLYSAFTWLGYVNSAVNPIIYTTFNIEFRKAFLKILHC
- measurement-notes: Dopamine D2L receptor binding, [125I]-iodospiperone displacement
- test-context: selectivity ratio Ki (D2L)/Ki (D3)
value-type: D2/D3, Ki (D2L)/Ki (D3)

Previously resolved entries follow.
COCCc1cc(N2CCN(CC[C@H]3C[C@H](NC(=O)[C@H]4CC[C@H](O)CC4)C3)CC2)nc(C(C)(C)C)n1.O=C(O)C(F)(F)F ... +++ (+++>50)
COCCc1cc(N2CCN(CC[C@H]3CC[C@H](NC(=O)[C@H]4CC[C@@H](O)CC4)CC3)CC2)nc(C(C)(C)C)n1 ... ++ (++>20)
CC(C)(C)c1nc(C2CCC2)cc(N2CCN(CC[C@H]3C[C@H](NC(=O)[C@H]4C[C@H](O)C4)C3)CC2)n1.O=C(O)C(F)(F)F ... +++ (+++>50)
CC(C)(C)c1nc(C2CCCC2)cc(N2CCN(CC[C@H]3CC[C@@H](NC(=O)[C@H]4CC[C@H](O)CC4)CC3)CC2)n1 ... +++ (+++>50)

Q: Write down the reported D2/D3, Ki (D2L)/Ki (D3) of COCCc1cc(N2CCN(CC[C@H]3CC[C@H](NC(=O)[C@H]4CC[C@H](OC)CC4)CC3)CC2)nc(C(C)(C)C)n1 , test system: human dopamine D2L receptors (long isoform) (Homo sapiens).
Result: ++ (++>20)
